Could you please report measured half-life for the items listed next?
EXPERIMENTAL_DETAILS: Effective half life in Sprague-Dawley rat at 2 mg/kg, iv and 5 mg/kg, po
Assay type: ADME, organism-based
EXPERIMENTAL_PARAMETERS: in vivo
Answers are plain numbers, in min.

Recorded half-life, per entry:
- SAMPLE_SMILES: "CCCCCOC(=O)N1CCN(C(=O)[C@H](CCC(=O)O)NC(=O)c2cc(N3CCC(CN)CC3)cc(-c3ccccc3)n2)CC1"
  half-life, min: 24
- SAMPLE_SMILES: "CCCCCOC(=O)N1CCN(C(=O)[C@H](CCC(=O)O)NC(=O)c2cc(OC3CCNCC3)cc(-c3ccccc3)n2)CC1"
  half-life, min: 18

API: the following record is the query input.
Given the compound CCCCCOC(=O)N1CCN(C(=O)[C@H](CCC(=O)O)NC(=O)c2cc(N(C)CCS(C)(=O)=O)cc(-c3ccccc3)n2)CC1 , what is its reported half-life?
12
